B1: OR4K15 (parent)
chain: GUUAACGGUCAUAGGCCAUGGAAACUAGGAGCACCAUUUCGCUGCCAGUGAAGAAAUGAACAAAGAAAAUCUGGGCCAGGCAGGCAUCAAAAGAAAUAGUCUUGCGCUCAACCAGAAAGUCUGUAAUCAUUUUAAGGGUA

- Variants of: B1
- Test method notes: self-cleavage, relative activity (ratio to wild type); higher = more cleavage; in vitro, sequencing; the parent is a self-cleaving ribozyme
Reported endpoint: self-cleavage

A18G U100C; 2.34

Briefly, self-cleavage measured for G44C C46A : 1.19

The measured self-cleavage associated with A47U A54G reads 0.67

# self-cleavage of A62U C88U = 2.34

Value of measured self-cleavage for the entry A52G A92G : 1.34

Note to self: self-cleavage recorded for A78U A89U was 0.35

Noted for A24G A114C : its self-cleavage reads 0.05

Please fill in: self-cleavage reported for G65A A126G = 1.12

Please fill in: self-cleavage reported for A55G C76A = 0.55

Form: variant = U72G A135G ; self-cleavage = 0.22
